- Tested on: rabbit corpus cavernosum
- METHOD_SUMMARY: rabbit corpus cavernosum relaxation/contraction, phenylephrine-contracted strip (MDS Pharma)
- Type: cell-based
- SETTINGS: 30 μM; relative to 0.3 μM sodium nitroprusside response; significant at ≧50%
ATTRIBUTE_MEASURED: Smooth Muscle relaxation (%) at 30 μM

> print(dat)
                                   compound  result
1  COc1cc2c(-c3ccc4c(c3)OCO4)c3c(c(OC)c2c(OC)c1OC)COC3=O     62%
2  COc1ccc(-c2c3c(c(OC)c4cc5c(cc24)OCO5)C(=O)OC3)cc1OC     57%
3  COc1ccc(CC2COC(=O)/C2=C\c2ccc3c(c2)OCO3)cc1OC (stereo not shown)     71%
4  COc1ccc(-c2c3c(c(O)c4cc5c(cc24)OCO5)COC3=O)cc1OC     75%
